Experiment: Stability at 40° C./75% RH in a glass bottle with an open state for 4 weeks
Assay type: physicochemical

compound	change in appearance
Cc1cc(F)ccc1[C@H]1C[C@@H](OC(=O)NCCO)CCN1C(=O)N(C)Cc1cc(C(F)(F)F)cc(C(F)(F)F)c1 [Type II]	no change in appearance
Cc1cc(F)ccc1[C@H]1C[C@@H](OC(=O)NCCO)CCN1C(=O)N(C)Cc1cc(C(F)(F)F)cc(C(F)(F)F)c1 [Type VII]	no change in appearance
Cc1cc(F)ccc1[C@H]1C[C@@H](OC(=O)NCCO)CCN1C(=O)N(C)Cc1cc(C(F)(F)F)cc(C(F)(F)F)c1 [Type I]	no change in appearance

----------
Target: human neurokinin-1 receptor (Homo sapiens)
Construct: Human lymphoblastoma IM-9 cells (5 10^6 cell/tube) were reacted with 0.3 nM; endogenous in cells
Sequence (P25103 whole entry): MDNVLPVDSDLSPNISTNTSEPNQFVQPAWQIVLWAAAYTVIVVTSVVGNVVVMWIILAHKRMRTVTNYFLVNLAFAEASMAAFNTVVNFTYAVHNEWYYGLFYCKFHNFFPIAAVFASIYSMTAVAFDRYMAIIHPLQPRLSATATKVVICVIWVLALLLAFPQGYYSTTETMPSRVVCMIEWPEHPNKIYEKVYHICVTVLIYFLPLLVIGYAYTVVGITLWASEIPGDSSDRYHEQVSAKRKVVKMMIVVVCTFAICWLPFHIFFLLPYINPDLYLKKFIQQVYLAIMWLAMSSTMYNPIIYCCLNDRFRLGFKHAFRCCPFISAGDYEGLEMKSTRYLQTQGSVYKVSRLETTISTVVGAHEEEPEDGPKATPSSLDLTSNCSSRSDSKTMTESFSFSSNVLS
Assay: Neurokinin-1 (NK1) receptor binding inhibitory action, [3H](Sar9, Met11(O2)) Substance P on IM-9 cells
Conditions: Human lymphoblastoma IM-9 cells, 0.3 nM [3H](Sar9, Met11(O2)) Substance P, room temperature 60 minutes; read-out: IC50 value, NK1 receptor binding inhibition
measured-property: IC50 (nM)
Numbers only, in nM.

Input: I would be grateful if you could share the reported IC50 for Cc1cc(F)ccc1[C@H]1C[C@@H](OC(=O)NCCO)CCN1C(=O)N(C)Cc1cc(C(F)(F)F)cc(C(F)(F)F)c1 .
Output: 4.59

The reported numbers originate from patent US20100305159A1.
